Consider the following binders and their measured Ki readings.
Molecular target: recombinant thrombin
Experiment: selectivity inhibition assay
*: point of attachment. kbt = C-terminal ketobenzothiazole, c1ccc2sc(*)nc2c1; Kbt = ketobenzothiazole, c1ccc2sc(*)nc2c1; Fmoc = O=C(OCC1c2ccccc2-c2ccccc21)*

BINDER	ASSAY_VALUE
Ac-WLFR-kbt (SMILES CC(=O)N[C@@H](Cc1c[nH]c2ccccc12)C(=O)N[C@@H](CC(C)C)C(=O)N[C@@H](Cc1ccccc1)C(=O)N[C@@H](CCCNC(=N)N)C(=O)c1nc2ccccc2s1) [Ac-WLFR(SEQ ID NO: 20)-Kbt]	> 20 µM
Ac-KQLR-Kbt (SMILES CC(=O)N[C@@H](CCCCN)C(=O)N[C@@H](CCC(N)=O)C(=O)N[C@@H](CC(C)C)C(=O)N[C@@H](CCCNC(=N)N)C(=O)c1nc2ccccc2s1) [Ac-KQLR(SEQ ID NO: 1)-Kbt]	> 20 µM

Kindly review the next binder as well.
What value of Ki has been recorded for this entry: Fmoc-Phe-Arg-kbt [Fmoc-FR-kbt]
> 2 µM

These data points were gathered from patent US20180066015A1.
